- system name: Inadl_5, Q8NI35
- Sequence (Q8NI35 673-780): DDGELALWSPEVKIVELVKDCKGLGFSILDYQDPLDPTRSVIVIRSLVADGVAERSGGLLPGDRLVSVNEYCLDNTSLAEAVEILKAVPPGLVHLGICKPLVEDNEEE
- assay text: holdup assay
- Design: key: below the threshold = too weak to quantify, mostly under pKd 3.1 to 4
- condition set: plain residues with an end cap or a label only (N-terminal biotin on a linker: ado-ado)
I'd be grateful if you could share measured pKd for these entries.
API doc: respond with a numeric literal and nothing else, no unit.

In one line, give reported pKd of the entry PLPPEEESWV [GAS2L2, Q8NHY3] . 4.29

In one line, give reported pKd of the entry TNSKQGETTV [FZD1, Q9UP38] . 3.5

In one line, give reported pKd of the entry THHRKIHTRV [ZNF599, Q96NL3] . 3.49
